# System: MDA-N
# MEASUREMENT_DESCRIPTION: NCI tumour cell line growth inhibition, 48 h
Activity calls are given as the source filed them. Cut-off read from the data, not from the text of the source: active = GI50 up to about 1.1 µM and inactive = higher.
MEASURED_PROPERTY: GI50

{"columns": ["COMPOUND", "RESULT"],
 "data": [
  ["O=c1cc(N2CCOCC2)[nH]c(=O)n1-c1ccc(F)cc1", "> 100 µM (inactive)"],
  ["Cc1cc(C)c2c(=O)n(CN3CC4Nc5ccccc5C4C3)sc2n1 (stereo not drawn)", "19.5 µM (inactive)"],
  ["O=C1C(c2ccccc2)=C(c2ccccc2)C1(Cl)Cl", "2.02 µM (inactive)"]
]}

###

Assay system HCT-15; read-out recorded as GI50.
MEASURED_PROPERTY: GI50

{"columns": ["COMPOUND", "MEASURED_PROPERTY", "RESULT"],
 "data": [
  ["CCOP(=O)(C/C=C/Cn1nc(Br)c(=O)[nH]c1=O)OCC", "GI50", "> 100 µM"],
  ["CCc1nnc(CC)n1-n1c(Cc2ccccc2)n[nH]c1=O", "GI50", "> 100 µM"],
  ["O=C1C[C@@]23CCC4(CC2CCC[C@H]3O1)OCCO4 (stereo partly drawn)", "GI50", "> 100 µM"]
]}

###

# Tested on: CCRF-CEM
# MEASUREMENT_DESCRIPTION: NCI tumour cell line growth inhibition, 48 h
Activity calls are given as the source filed them. Cut-off read from the data, not from the text of the source: active = GI50 up to about 1.1 µM and inactive = higher.

{"columns": ["MOLECULE", "TARGET_OR_TEST_SYSTEM", "GI50"],
 "data": [
  ["CCCCCCCCCCCC1CC(=O)NCCCN(C)CCCCN(C)CCCN1C (stereo not drawn)", "CCRF-CEM", "0.156 µM (active)"],
  ["CCOC(=O)NC(=O)c1cn(CCN2CCN(c3ncnc4[nH]cnc34)CC2)c(=O)[nH]c1=O", "CCRF-CEM", "> 100 µM (inactive)"],
  ["C[N+](C)(C)CC1CCC/C1=N\\OC(=O)c1ccccc1 (stereo not drawn)", "CCRF-CEM", "> 100 µM (inactive)"]
]}

###

# System: K562
# MEASUREMENT_DESCRIPTION: NCI tumour cell line growth inhibition, 48 h
The source made the active and inactive calls. Cut-off read from the data, not from the text of the source: active = GI50 up to about 1.1 µM and inactive = higher.
Outcome codes: active, inactive

{"columns": ["COMPOUND", "ASSIGNED_LABEL"],
 "data": [
  ["O=C(O)CCS/C(=C\\C(SCCC(=O)O)c1ccc(Cl)cc1)c1ccc(Cl)cc1 (stereo not drawn)", "inactive"],
  ["Cc1ccc(NC(=O)CCc2nnc3s/c(=C\\C=C\\c4ccccc4)c(=O)n23)cc1", "inactive"],
  ["O=[N+]([O-])C(=C/c1cccc2ccccc12)/C(=C\\c1cccc2ccccc12)[N+](=O)[O-]", "inactive"],
  ["O=C1OC(c2ccco2)=N/C1=C\\c1ccc(Cl)c(Cl)c1", "inactive"],
  ["COC1OC(C(C)O)C2OC(C)(C)OC12 (stereo not drawn)", "inactive"],
  ["NS(=O)(=O)c1ccc(NC(=O)C2C(=O)C(=O)N(c3ccc(S(N)(=O)=O)cc3)C2=O)cc1 (stereo not drawn)", "inactive"],
  ["COc1ccc(C(=O)N=C2N(c3ccccc3)C(=N/c3ccccc3)/C(=N\\c3ccccc3)N2c2ccccc2)cc1", "inactive"],
  ["O=C1c2c(n(Cc3ccccc3)c(=O)n2Cc2ccccc2)C(=O)N1Cc1ccccc1", "inactive"],
  ["CCOc1cc(C2SCC(=O)N2c2nc3cc4sc(N5C(=O)CSC5c5ccc(O)c(OCC)c5)nc4cc3s2)ccc1O (stereo not drawn)", "inactive"],
  ["Cc1cn(Cc2ccccc2CCO)c(=S)[nH]c1=O", "inactive"],
  ["CCCC(C(=O)Nc1cccc2nc[nH]c12)C(=O)OCC (stereo not drawn)", "inactive"],
  ["CC1CCC2C(C)C(=O)OC2C2(C)C(=O)C=CC12 (stereo not drawn)", "inactive"],
  ["CC1=NN2C(=N)/C(=C/c3ccco3)C(=O)N=C2S1", "inactive"],
  ["CC(O)=NC(Cc1ccc2ccccc2c1)C(O)=NC(Cc1ccc(Cl)cc1)C(O)=NC(Cc1c[nH]c2ccccc12)C(O)=NC(CO)C(O)=NC(Cc1ccc(O)cc1)C(O)=NC(CCCN=C(N)N)C(O)=NC(CC(C)C)C(O)=NC(CCCN=C(N)N)C(=O)N1CCCC1C(O)=NC(C)C(=N)O (stereo not drawn)", "inactive"],
  ["N/C(=N\\c1ccc(Cl)cc1)NS(=O)(=O)c1ccc(-c2ccccn2)s1", "inactive"],
  ["CC/C(=N\\NC(=O)c1cccnc1)c1ccc2c(c1)OCCO2", "inactive"],
  ["CC(C)=CCc1cc2c(cc1O)OC[C@H]1c3cc4c(cc3O[C@@H]21)OCO4", "inactive"],
  ["C=CCN(C(=O)OC(C)(C)C)[C@H](C)C(=O)N[C@@H](C)C(=O)OC", "inactive"],
  ["O=C1O[C@H](c2ccc3c(c2)OCO3)[C@H]2CO[C@@H](c3ccc4c(c3)OCO4)[C@@H]12", "inactive"],
  ["CC(C)/C(Cl)=N/OC(=O)Nc1ccc(OC(F)(F)F)cc1", "inactive"],
  ["Cc1cc(S(=O)(=O)Nc2nc(N)n[nH]2)c(S)cc1Cl", "inactive"],
  ["COc1cc(C2C(Cl)C(=O)N2NC(=O)c2ccc(NC(C)=O)cc2)cc(Br)c1O (stereo not drawn)", "inactive"],
  ["c1ccc(CNc2ccc3[nH]c4cnccc4c3c2)cc1", "inactive"],
  ["COc1ccc2c(c1)CCc1c-2[nH]c2ccc(OC)cc12", "inactive"],
  ["CCCCCCCCCCCC1CC(=O)NCCCN(C)CCCCN(C)CCCN1C (stereo not drawn)", "active"],
  ["O=C1Sc2ccccc2C(=O)N2CCSC12 (stereo not drawn)", "inactive"],
  ["Clc1ccc(CCn2cncn2)cc1", "inactive"],
  ["CC(C)(C)c1nc2c(o1)/C(=N\\c1ccc(F)cc1)c1ccccc1C2=O", "inactive"],
  ["COc1ccc2nc3cc(Cl)ccc3c(Sc3ccc([N+](=O)[O-])cc3)c2c1", "inactive"],
  ["CCOC(=O)C(O)(NC(C)=O)C(F)(F)F (stereo not drawn)", "inactive"],
  ["CC(CC(C)[C@H]1CCC2[C@H]3C(CC[C@@]21C)[C@@]1(C)CCC(O)C[C@H]1C[C@@H]3O)C(=O)O (stereo partly drawn)", "inactive"],
  ["O=C(O)CSC1=NCCN1", "inactive"],
  ["CCC(C)NC1=C(NC(C)=O)C(=O)c2ccccc2C1=O (stereo not drawn)", "inactive"]
]}

###

# System: CCRF-CEM
# MEASUREMENT_DESCRIPTION: NCI tumour cell line growth inhibition, 48 h
Active and inactive are the calls of the source. Cut-off read from the data, not from the text of the source: active = GI50 up to about 1.1 µM and inactive = higher.

{"columns": ["COMPOUND", "TARGET_OR_TEST_SYSTEM", "GI50"],
 "data": [
  ["NC(=S)N/N=c1\\cc(C(=O)Nc2ccc([N+](=O)[O-])cc2[N+](=O)[O-])oc2ccccc12", "CCRF-CEM", "> 100 µM (inactive)"],
  ["O=C(O)CSC1=NCCN1", "CCRF-CEM", "> 100 µM (inactive)"],
  ["CN1CN(c2ccccc2)C2(CCN(Cc3nc4ccccc4s3)CC2)C1=O", "CCRF-CEM", "17.3 µM (inactive)"],
  ["N=C1NC(c2ccc(Cl)cc2)=CC(c2cccc(Cl)c2)S1 (stereo unspecified)", "CCRF-CEM", "22.4 µM (inactive)"],
  ["CC(C)(c1ccccc1)c1ccc(Oc2ccc(C#N)c(C#N)c2)cc1", "CCRF-CEM", "56.5 µM (inactive)"],
  ["COC(=O)C1CC/C(=N\\c2cccc(C(F)(F)F)c2)N1 (stereo unspecified)", "CCRF-CEM", "> 100 µM (inactive)"]
]}

###

# Tested on: Hs-578T
# MEASUREMENT_DESCRIPTION: NCI tumour cell line growth inhibition, 48 h
Active and inactive are the calls of the source. Cut-off read from the data, not from the text of the source: active = GI50 up to about 1.1 µM and inactive = higher.
Listed here are compounds together with their documented GI50.

{"columns": ["COMPOUND", "TARGET_OR_TEST_SYSTEM", "GI50"],
 "data": [
  ["COC(=O)c1ccccc1C1CN=NC12Cc1c(C)c3c(c(C)c1C2=O)CCC3 (stereo not drawn)", "Hs-578T", "> 100 µM (inactive)"],
  ["CSc1c(C#N)c(=O)n(N)c2[nH]nc(C)c12", "Hs-578T", "> 100 µM (inactive)"],
  ["CC1(C)OC2C(O)CN3CCS[C@H]3C2O1 (stereo partly drawn)", "Hs-578T", "> 100 µM (inactive)"]
]}

###

# Tested on: XF498
# MEASUREMENT_DESCRIPTION: NCI tumour cell line growth inhibition, 48 h
Activity calls are given as the source filed them. Cut-off read from the data, not from the text of the source: active = GI50 up to about 1.1 µM and inactive = higher.
Labels: active, inactive

{"columns": ["MOLECULE", "ASSIGNED_LABEL"],
 "data": [
  ["CC(=O)c1ccc(NC(=O)/C(=N\\NC(N)=O)C(C#N)CC(C)(C)C=O)cc1 (stereo not given)", "inactive"],
  ["COC(=O)C1CC/C(=N\\c2cccc(C(F)(F)F)c2)N1 (stereo not given)", "inactive"],
  ["Cc1ccc(NC(=O)C2C(=O)N(c3ccc(C)c(C)c3)C(=O)/C2=N\\NC(N)=O)cc1C (stereo not given)", "inactive"],
  ["Cc1ccc(/C=N/NS(=O)(=O)c2ccccc2)c(C)c1", "inactive"],
  ["COc1ccc(CC2(Cc3ccc(OC)cc3)CCOC2=O)cc1", "active"]
]}

Origin of measurements: ChEMBL document CHEMBL1201862
